molecular target: hERG channel (Homo sapiens); construct: purchased Invitrogen; assay: hERG fluorescence polarisation assay (Predictor); assay type: binding
Sequence (Q12809 whole entry): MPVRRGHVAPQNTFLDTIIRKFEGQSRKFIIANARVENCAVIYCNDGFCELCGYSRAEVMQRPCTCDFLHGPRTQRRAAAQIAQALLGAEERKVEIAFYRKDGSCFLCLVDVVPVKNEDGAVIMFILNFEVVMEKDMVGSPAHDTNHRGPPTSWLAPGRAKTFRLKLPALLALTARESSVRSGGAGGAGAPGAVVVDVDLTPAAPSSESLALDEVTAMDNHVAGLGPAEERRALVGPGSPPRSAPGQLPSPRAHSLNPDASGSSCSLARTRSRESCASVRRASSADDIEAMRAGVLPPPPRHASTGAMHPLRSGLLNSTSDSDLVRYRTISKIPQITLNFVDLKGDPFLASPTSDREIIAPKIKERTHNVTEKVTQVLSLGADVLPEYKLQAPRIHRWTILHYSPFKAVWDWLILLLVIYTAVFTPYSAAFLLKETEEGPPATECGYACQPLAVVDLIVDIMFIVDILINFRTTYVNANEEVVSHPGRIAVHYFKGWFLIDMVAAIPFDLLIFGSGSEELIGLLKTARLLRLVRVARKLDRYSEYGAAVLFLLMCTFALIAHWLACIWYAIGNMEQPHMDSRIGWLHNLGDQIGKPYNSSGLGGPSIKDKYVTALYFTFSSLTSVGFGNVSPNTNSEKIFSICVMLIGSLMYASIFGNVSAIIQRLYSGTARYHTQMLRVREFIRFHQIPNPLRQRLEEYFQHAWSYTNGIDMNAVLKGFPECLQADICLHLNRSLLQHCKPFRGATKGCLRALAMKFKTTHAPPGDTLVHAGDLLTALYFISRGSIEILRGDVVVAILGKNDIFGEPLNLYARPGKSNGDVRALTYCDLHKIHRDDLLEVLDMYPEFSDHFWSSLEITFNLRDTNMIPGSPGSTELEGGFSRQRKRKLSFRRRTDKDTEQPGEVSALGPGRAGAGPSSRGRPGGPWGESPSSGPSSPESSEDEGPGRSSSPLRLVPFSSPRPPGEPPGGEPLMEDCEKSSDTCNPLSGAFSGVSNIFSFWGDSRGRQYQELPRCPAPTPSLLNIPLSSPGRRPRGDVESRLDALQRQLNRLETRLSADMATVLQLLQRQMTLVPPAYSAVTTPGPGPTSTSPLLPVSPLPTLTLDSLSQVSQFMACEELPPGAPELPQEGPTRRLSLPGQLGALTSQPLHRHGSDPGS
Quantity: IC50

Compound: O=C1CC(c2ccc(O)c(O)c2)Oc2ccc(O)cc21 (stereo not drawn)
System Under Test: hERG channel (Homo sapiens)
IC50: 64 µM
--
Compound: O=C1CC(c2ccc(O)cc2)Oc2ccc(O)cc21 (stereo not drawn)
System Under Test: hERG channel (Homo sapiens)
IC50: > 100 µM

Request: Which measured IC50 value corresponds to O=C1CC(c2cccc(O)c2)Oc2ccc(O)cc21 (stereo not drawn) ?
Response: > 100 µM

---

Recorded IC50 values (CYP2C9 (Homo sapiens)) are given below.
Report as a plain number; the unit µM is understood.

Compound: O=C1CC(c2ccc(O)c(O)c2)Oc2ccc(O)cc21 (stereo not drawn)
IC50 (µM): 4

Okay, now this compound:
Request: Enter reported IC50 observed with CYP2C9 (Homo sapiens) for O=C1CC(c2cccc(O)c2)Oc2ccc(O)cc21 (stereo not drawn)
Sequence (P11712 whole entry): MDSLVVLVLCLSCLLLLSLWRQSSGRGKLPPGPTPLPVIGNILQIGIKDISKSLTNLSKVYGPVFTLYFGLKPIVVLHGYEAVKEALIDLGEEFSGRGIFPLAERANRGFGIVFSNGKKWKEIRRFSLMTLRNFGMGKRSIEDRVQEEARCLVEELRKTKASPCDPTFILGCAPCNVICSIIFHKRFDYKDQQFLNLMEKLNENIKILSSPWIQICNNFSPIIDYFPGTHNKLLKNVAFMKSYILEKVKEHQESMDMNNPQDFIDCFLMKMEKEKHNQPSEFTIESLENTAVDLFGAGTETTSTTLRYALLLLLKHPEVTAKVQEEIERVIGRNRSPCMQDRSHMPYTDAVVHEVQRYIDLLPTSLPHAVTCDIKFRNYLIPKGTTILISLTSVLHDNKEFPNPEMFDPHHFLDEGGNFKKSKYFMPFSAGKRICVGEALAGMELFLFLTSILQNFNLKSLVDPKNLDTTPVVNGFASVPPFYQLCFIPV
Response: 72

---

biological target: Leishmania major pteridine reductase 1 (LmPTR1) (Leishmania major); construct: made in house; assay: LmPTR1 enzyme reporter assay (cytochrome-c reduction, 550 nm); format: biochemical; details: compounds 1–3; SD agreed to ±10%
Sequence (Q01782 whole entry): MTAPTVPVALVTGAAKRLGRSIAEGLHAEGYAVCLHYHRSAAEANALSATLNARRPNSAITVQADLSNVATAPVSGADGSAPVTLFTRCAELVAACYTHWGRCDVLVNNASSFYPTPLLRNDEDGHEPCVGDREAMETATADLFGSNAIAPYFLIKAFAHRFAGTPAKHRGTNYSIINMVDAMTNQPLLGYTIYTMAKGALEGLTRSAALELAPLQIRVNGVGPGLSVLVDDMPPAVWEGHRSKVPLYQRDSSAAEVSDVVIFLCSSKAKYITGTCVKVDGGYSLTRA
Quantity: IC50
Answer with the figure and its unit, nothing else.

Please review the entries below; each comes with its answer.
Compound: O=C1CC(c2cccc(O)c2)Oc2ccc(O)cc21 (stereo not drawn) [Compound 1]
Recorded Value: 57 µM
--
Compound: O=C1CC(c2ccc(O)cc2)Oc2ccc(O)cc21 (stereo not drawn) [Compound 2]
Recorded Value: 35 µM

Request: Which measured IC50 value corresponds to O=C1CC(c2ccc(O)c(O)c2)Oc2ccc(O)cc21 (stereo not drawn) [Compound 3] ?
Response: 36 µM

---

System: T. brucei bloodstream forms
Assay: Activity against T. brucei bloodstream forms (resazurin-based assay)
Assay type: cell-based, Trypanosoma brucei
Details: Trypanosoma brucei; read-out: IC50 (reference compound for T. brucei)
Procedure: The efficacy of compounds against T. brucei bloodstream forms was evaluated using a modified resazurin-based assay previously described in literature.
Quantity: IC50 (nM)
Report as a plain number; the unit nM is understood.

Request: Which measured IC50 value corresponds to N=C(N)c1ccc(OCCCCCOc2ccc(C(=N)N)cc2)cc1 [pentamidine, reference compound] ?
Response: 1.55

---

Measured pIC50 by item
system: 786-O (renal carcinoma) cell line; assay: Mitochondrial toxicity (MitoTracker Red CMXRos uptake, high content imaging); assay type: cell-based; settings: Homo sapiens, 786-0; read-out: IC50 Mitochondria
pIC50: −log10 of the molar value.

Please review the entries below; each comes with its answer.
Compound: O=C1CC(c2ccc(O)cc2)Oc2ccc(O)cc21 (stereo not drawn)
pIC50: < 4.00
//
Compound: O=C1CC(c2ccc(O)c(O)c2)Oc2ccc(O)cc21 (stereo not drawn)
pIC50: < 4.00

Okay, now this compound:
Request: Enter reported pIC50 observed with 786-O (renal carcinoma) cell line for O=C1CC(c2cccc(O)c2)Oc2ccc(O)cc21 (stereo not drawn)
Response: < 4.00

---

Measured inhibition at 50 µM by item
biological target: Trypanosoma brucei pteridine reductase 1 (TbPTR1) (Trypanosoma brucei brucei, UniProt O76290); construct: made in house; experiment: TbPTR1 enzyme reporter assay (cytochrome-c reduction, 550 nm); type: biochemical; conditions: read-out: % Inhibition TbPTR1 (50 μM), 50 μM; compounds 1–3 and control
Sequence (O76290 1-268): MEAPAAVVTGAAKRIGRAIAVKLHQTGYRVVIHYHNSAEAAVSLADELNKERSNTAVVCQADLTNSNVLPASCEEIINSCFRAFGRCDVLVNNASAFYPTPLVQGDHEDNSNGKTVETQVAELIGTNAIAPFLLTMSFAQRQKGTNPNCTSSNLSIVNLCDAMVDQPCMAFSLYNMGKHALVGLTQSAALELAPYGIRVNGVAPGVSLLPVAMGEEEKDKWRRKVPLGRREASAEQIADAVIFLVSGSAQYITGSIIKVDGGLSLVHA
Report as a plain number; the unit % is understood.

Please review the entries below; each comes with its answer.
Molecule: O=C1CC(c2ccc(O)cc2)Oc2ccc(O)cc21 (stereo not shown) [Compound 2]
inhibition at 50 µM, %: 17.7
//
Molecule: O=C1CC(c2ccc(O)c(O)c2)Oc2ccc(O)cc21 (stereo not shown) [Compound 3]
inhibition at 50 µM, %: 34.6
//
Molecule: CCc1nc(N)nc(N)c1-c1ccc(Cl)cc1 [pyrimethamine, reference compound]
inhibition at 50 µM, %: 100

Okay, now this molecule:
Request: Which measured inhibition at 50 µM value corresponds to O=C1CC(c2cccc(O)c2)Oc2ccc(O)cc21 (stereo not shown) [Compound 1] ?
Response: 81.3
